# measurement target: EGFR (UniProt P00533)
# Sequence (P00533 whole entry, looked up): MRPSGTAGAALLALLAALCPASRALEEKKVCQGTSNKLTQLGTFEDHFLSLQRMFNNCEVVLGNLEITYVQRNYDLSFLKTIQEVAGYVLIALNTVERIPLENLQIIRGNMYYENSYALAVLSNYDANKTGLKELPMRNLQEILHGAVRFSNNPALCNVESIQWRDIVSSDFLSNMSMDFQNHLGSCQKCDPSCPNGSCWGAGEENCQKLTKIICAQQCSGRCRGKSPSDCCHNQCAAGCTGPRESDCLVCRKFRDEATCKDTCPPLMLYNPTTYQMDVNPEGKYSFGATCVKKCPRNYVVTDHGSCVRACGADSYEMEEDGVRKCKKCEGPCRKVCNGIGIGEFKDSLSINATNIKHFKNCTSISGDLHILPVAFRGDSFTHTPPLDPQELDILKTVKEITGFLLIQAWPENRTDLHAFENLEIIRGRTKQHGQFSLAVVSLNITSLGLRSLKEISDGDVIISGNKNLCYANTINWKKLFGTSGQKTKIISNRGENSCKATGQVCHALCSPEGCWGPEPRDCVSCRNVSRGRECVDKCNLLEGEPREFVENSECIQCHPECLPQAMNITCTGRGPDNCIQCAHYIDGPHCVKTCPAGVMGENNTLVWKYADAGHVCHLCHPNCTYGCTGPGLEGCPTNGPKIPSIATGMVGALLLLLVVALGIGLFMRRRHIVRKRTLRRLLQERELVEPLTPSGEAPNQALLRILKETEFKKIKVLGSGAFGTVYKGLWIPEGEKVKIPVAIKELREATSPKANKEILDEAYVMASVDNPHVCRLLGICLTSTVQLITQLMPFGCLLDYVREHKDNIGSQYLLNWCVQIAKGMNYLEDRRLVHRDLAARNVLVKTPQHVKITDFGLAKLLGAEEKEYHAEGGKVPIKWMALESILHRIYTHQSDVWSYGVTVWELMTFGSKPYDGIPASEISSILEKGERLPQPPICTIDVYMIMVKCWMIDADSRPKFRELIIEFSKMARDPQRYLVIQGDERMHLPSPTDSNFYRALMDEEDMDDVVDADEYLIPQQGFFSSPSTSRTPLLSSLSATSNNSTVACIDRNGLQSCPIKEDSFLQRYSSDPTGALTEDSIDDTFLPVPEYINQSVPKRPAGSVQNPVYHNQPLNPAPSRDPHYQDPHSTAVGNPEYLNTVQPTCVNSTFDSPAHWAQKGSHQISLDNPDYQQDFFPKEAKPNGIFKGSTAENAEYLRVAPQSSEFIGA
pIC50: −log10 of the molar value.
parameter measured: pIC50

# count of solved cases: 2
- compound: "COc1cccc(CNc2n[nH]c3ncnc(Nc4cccc(Cl)c4)c23)c1"
  measurement target: "EGFR (UniProt P00533)"
  readout value: 8.10
- compound: "COc1cc2c(NC3CC3c3ccccc3)ncnc2cc1OCCCN(C)C (stereo not drawn)"
  measurement target: "EGFR (UniProt P00533)"
  readout value: 8.52

[P] C=CC(=O)Nc1ccc2sc3c(Nc4cccc(Br)c4)ncnc3c2c1
[Q] Nc1ccc(-c2n[nH]c3ncnc(Nc4cccc(Cl)c4)c23)cc1
[R] Brc1cccc(Nc2ncnc3cc(NCCCN4CCOCC4)ncc23)c1
[S] Nc1nc(N)c2c(Nc3cccc(Cl)c3)n[nH]c2n1
QUERY: Order each entry by recorded pIC50, climbing from the minimum. # answer = labels listed in requested order
RESULT: S, P, R, Q
(S: 6.66, P: 7.64, R: 8.13, Q: 8.70)

Data provenance is the Kinase Knowledgebase extract (Sharma et al. 2016).
